- experimental.system: T1, Pex13, P80667
- T1 sequence (P80667 295-386, looked up): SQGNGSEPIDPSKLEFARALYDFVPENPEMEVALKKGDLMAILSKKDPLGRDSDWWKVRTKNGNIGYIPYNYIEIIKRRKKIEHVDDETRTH
- protocol.notes: SPOT array
- test.settings: median of control spots 1341
Response field label: string, one of fulfilled (SPOT intensity strictly below 20) or not fulfilled.

Quick check: does NSVPIMPTLPPRPYI have SPOT intensity under 20? not fulfilled

Quick check: does TPTSGPPLLPPRNTM have SPOT intensity under 20? not fulfilled

Hi there! Is SPOT intensity for LYEAMPPTLPHRDWK below 20, do you know? not fulfilled

Does the reported SPOT intensity of HPRFVSPRIPSRIVK stay below 20? not fulfilled

Lab note: SPOT intensity threshold 20. Does this binder come in strictly under it? LASNSPPVYPKRIRH fulfilled
